assay: Ratio of Kcat to Km for Aminoglycoside […] 2a using ATP/GTP as second substrate by spectrophotometric assay

structure smiles string: NC[C@@H]1O[C@@H](O[C@H]2[C@H](O)[C@@H](O[C@H]3O[C@H](CO)[C@@H](O)[C@H](N)[C@H]3O)[C@H](N)C[C@@H]2N)[C@@H](O)[C@H](O)[C@H]1O
kcat/Km, ×10⁷ /M/s: 2.2
//
structure smiles string: NC[C@@H]1CC[C@@H](N)[C@@H](O[C@H]2[C@H](O)[C@@H](O[C@H]3O[C@H](CO)[C@@H](O)[C@H](N)[C@H]3O)[C@H](N)C[C@@H]2N)O1
kcat/Km, ×10⁷ /M/s: 1.4

* * *

Reported kcat/Km values for a set of compounds
test: Ratio of Kcat to Km for Aminoglycoside […] 2a R92H/D268N mutant using ATP/GTP as second substrate by spectrophotometric assay

structure smiles string: Nc1ncnc2c1ncn2[C@@H]1O[C@H](COP(=O)(O)OP(=O)(O)OP(=O)(O)O)[C@@H](O)[C@H]1O
kcat/Km: 7.2 ×10⁵ /M/s

structure smiles string: CN[C@@H]1[C@@H](O)[C@@H](O[C@@H]2[C@@H](O)[C@H](O[C@H]3O[C@H](CN)[C@@H](O)[C@H](O)[C@H]3O)[C@@H](N)C[C@H]2NC(=O)[C@@H](O)CN)OC[C@]1(C)O
kcat/Km: 2.3 ×10⁶ /M/s

structure smiles string: NC[C@H]1O[C@H](O[C@H]2[C@H](O)[C@@H](O[C@H]3O[C@H](CO)[C@@H](O)[C@H](N)[C@H]3O)[C@H](N)C[C@@H]2N)[C@H](N)C[C@@H]1O
kcat/Km: > 2.7 ×10⁷ /M/s

structure smiles string: NC[C@@H]1CC[C@@H](N)[C@@H](O[C@H]2[C@H](O)[C@@H](O[C@H]3O[C@H](CO)[C@@H](O)[C@H](N)[C@H]3O)[C@H](N)C[C@@H]2N)O1
kcat/Km: 2.3 ×10⁷ /M/s

* * *

Reported MIC values for a set of molecules
tested on: Escherichia coli; test: Antibacterial activity against Escherichia coli JM83 harboring pHF022 containing aminoglycoside 2''-2a D268N mutant by broth microdilution method; assay type: functional
attribute measured: MIC

structure smiles string: NCC[C@H](O)C(=O)N[C@@H]1C[C@H](N)[C@@H](O[C@H]2O[C@H](CN)[C@@H](O)[C@H](O)[C@H]2O)[C@H](O)[C@H]1O[C@H]1O[C@H](CO)[C@@H](O)[C@H](N)[C@H]1O
assay target: Escherichia coli
readout value: 2 µg/mL
--
structure smiles string: CN[C@@H]1[C@@H](O)[C@@H](O[C@@H]2[C@@H](O)[C@H](O[C@H]3OC(CN)=CC[C@H]3N)[C@@H](N)C[C@H]2N)OC[C@]1(C)O
assay target: Escherichia coli
readout value: 4 µg/mL
--
structure smiles string: NC[C@H]1O[C@H](O[C@H]2[C@H](O)[C@@H](O[C@H]3O[C@H](CO)[C@@H](O)[C@H](N)[C@H]3O)[C@H](N)C[C@@H]2N)[C@H](N)[C@@H](O)[C@@H]1O
assay target: Escherichia coli
readout value: 64 µg/mL
--
structure smiles string: CN[C@@H]1[C@@H](O)[C@@H](O[C@@H]2[C@@H](O)[C@H](O[C@H]3O[C@H](CN)[C@@H](O)[C@H](O)[C@H]3O)[C@@H](N)C[C@H]2NC(=O)[C@@H](O)CN)OC[C@]1(C)O
assay target: Escherichia coli
readout value: 2 µg/mL
